biological target: human recombinant COX‐1 (Homo sapiens); construct: purchased Sigma Chemical Co. (St. Louis, MO, USA); assay: In vitro fluorometric COX‐1 inhibitory assay; assay type: biochemical; conditions: at 100 μM, highest tested concentration, mean ± SEM
Sequence (P23219 24-599): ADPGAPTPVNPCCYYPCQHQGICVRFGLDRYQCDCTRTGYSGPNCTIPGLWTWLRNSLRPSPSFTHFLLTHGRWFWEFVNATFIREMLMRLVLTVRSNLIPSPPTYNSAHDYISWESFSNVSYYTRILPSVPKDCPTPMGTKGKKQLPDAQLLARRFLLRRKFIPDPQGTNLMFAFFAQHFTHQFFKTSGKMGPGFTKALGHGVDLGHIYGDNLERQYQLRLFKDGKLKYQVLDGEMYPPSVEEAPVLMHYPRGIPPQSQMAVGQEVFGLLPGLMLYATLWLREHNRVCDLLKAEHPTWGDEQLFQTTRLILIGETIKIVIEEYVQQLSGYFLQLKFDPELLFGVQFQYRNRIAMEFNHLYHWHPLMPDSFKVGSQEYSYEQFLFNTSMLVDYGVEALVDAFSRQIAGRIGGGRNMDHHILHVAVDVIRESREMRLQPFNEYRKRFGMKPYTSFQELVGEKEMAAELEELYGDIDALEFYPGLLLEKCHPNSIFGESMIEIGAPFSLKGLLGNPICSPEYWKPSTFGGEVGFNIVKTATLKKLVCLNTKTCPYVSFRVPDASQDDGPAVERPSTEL
measure: inhibition at 100 µM

Example cases with answers are listed next.
COc1cc(OC)c(C(=O)/C=C/c2cccc(Cl)c2)c(OC)c1C(=O)/C=C/c1cccc(Cl)c1 [Compound 15] :: < 30%
COCOc1cc(OCOC)c(C(=O)/C=C/c2ccc(OC)c(OC)c2)c(OCOC)c1C(=O)/C=C/c1ccc(OC)c(OC)c1 [Compound 19] :: < 30%
COc1ccc(/C=C/C(=O)c2c(O)cc(O)c(C(=O)/C=C/c3ccc(OC)c(OC)c3)c2O)cc1OC [Compound 26] :: 40 to 50%
COc1cc(OC)c(C(=O)/C=C/c2ccc(O)cc2)c(OC)c1C(=O)/C=C/c1ccc(O)cc1 [Compound 12] :: ~50%

Find the measured inhibition at 100 µM of COc1ccc(/C=C/C(=O)c2c(OC)cc(OC)c(C(=O)/C=C/c3ccc(OC)c(OC)c3)c2OC)cc1OC [Compound 10] and report it.
< 30%

Identify the reported inhibition at 100 µM for the following entry. COCOc1cc(OCOC)c(C(=O)/C=C/c2ccc(Br)cc2)c(OCOC)c1C(=O)/C=C/c1ccc(Br)cc1 [Compound 22]
< 30%

State, in one line, measured inhibition at 100 µM of O=C(/C=C/c1ccc(Br)cc1)c1c(O)cc(O)c(C(=O)/C=C/c2ccc(Br)cc2)c1O [Compound 29]
40 to 50%

---

Biological target: human recombinant COX‐2 (Homo sapiens)
Construct: purchased Sigma Chemical Co. (St. Louis, MO, USA)
Sequence (P35354 18-604): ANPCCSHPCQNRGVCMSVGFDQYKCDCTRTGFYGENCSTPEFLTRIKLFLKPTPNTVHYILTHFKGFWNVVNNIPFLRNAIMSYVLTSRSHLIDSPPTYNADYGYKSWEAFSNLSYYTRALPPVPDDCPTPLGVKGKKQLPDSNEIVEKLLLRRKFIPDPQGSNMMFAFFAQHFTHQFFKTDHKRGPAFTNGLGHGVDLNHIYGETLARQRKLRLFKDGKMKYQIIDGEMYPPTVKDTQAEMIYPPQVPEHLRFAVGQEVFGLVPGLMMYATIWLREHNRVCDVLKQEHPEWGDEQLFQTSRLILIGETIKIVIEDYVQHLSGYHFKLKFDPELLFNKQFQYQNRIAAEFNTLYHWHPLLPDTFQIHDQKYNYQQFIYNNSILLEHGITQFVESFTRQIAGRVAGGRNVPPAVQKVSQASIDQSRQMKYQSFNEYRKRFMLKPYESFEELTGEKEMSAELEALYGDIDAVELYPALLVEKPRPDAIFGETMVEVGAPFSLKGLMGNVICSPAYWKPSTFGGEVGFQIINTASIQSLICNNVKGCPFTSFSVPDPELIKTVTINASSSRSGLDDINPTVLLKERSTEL
Assay: In vitro fluorometric COX‐2 inhibitory assay and selectivity index
Format: biochemical
Conditions: at 100 μM, highest tested concentration, mean ± SEM
// values below are reported inhibition at 100 µM

Example cases with answers are listed next.
COc1cc(OC)c(C(=O)/C=C/c2cccc(Cl)c2)c(OC)c1C(=O)/C=C/c1cccc(Cl)c1 [Compound 15] :: < 30%
COc1ccc(/C=C/C(=O)c2c(O)cc(O)c(C(=O)/C=C/c3ccc(OC)c(OC)c3)c2O)cc1OC [Compound 26] :: 40 to 50%
COCOc1ccc(/C=C/C(=O)c2c(OCOC)cc(OCOC)c(C(=O)/C=C/c3ccc(OCOC)cc3)c2OCOC)cc1 [Compound 25] :: < 30%
COCOc1cc(OCOC)c(C(=O)/C=C/c2ccc(OC)c(OC)c2)c(OCOC)c1C(=O)/C=C/c1ccc(OC)c(OC)c1 [Compound 19] :: < 30%

--- query ---
Lab note: human recombinant COX‐2 (Homo sapiens) assay, enter inhibition at 100 µM for O=C(/C=C/c1ccc(Br)cc1)c1c(O)cc(O)c(C(=O)/C=C/c2ccc(Br)cc2)c1O [Compound 29] here
40 to 50%
